# protocol details: Aqueous solubility estimation by nephelometry
# Assay type: physicochemical
# run conditions: pH 2.0 (0.01 N HCl), 1% DMSO, read-out: Solubility pH 2.0
measure: solubility

solubility reported for this compound Cc1cc(/C=C2\S/C(=N\c3ccccc3)N(C3CCCCC3)C2=O)c(C)n1-c1ccc(F)cc1 : < 0.8 µg/mL

---

measure: melting point

Answered cases to consult:
INSERT INTO measurements (compound, val) VALUES
  ('O=C1/C(=C/c2ccn(-c3ccccc3C(F)(F)F)c2)S/C(=N\c2ccccc2)N1C1CCCCC1 [Compound 28]', '145 to 147 °C'),
  ('O=C1/C(=C/c2ccn(Cc3ccccc3)c2)S/C(=N\c2ccccc2)N1C1CCCCC1 [Compound 29]', '68 to 70 °C');

Please go through the list and note melting point for each compound.
1. Cc1cc(/C=C2\SC(=O)NC2=O)c(C)n1-c1ccccc1C(F)(F)F [Compound 44]
2. Cc1cc(/C=C2\NC(=O)NC2=O)c(C)n1-c1ccccc1C(F)(F)F [Compound 49]

234 to 235 °C
265 to 267 °C

---

Assignment: determine reported EC50 at 72 h for the given molecules.
# protocol details: In vitro cytotoxicity assay in L-6 cells (Alamar Blue)
# run conditions: rat, L-6 cells (rat skeletal myoblasts)
Answers are plain numbers, in µM.

INSERT INTO measurements (smiles_representation, measure, val) VALUES
  ('Cc1cc(/C=C2\S/C(=N\c3ccccc3)N(C3CCCCC3)C2=O)c(C)[nH]1', 'EC50 at 72 h', 23),
  ('Cc1cc(/C=C2/SC(=N)NC2=O)c(C)n1-c1ccccc1C(F)(F)F', 'EC50 at 72 h', 56),
  ('Cc1cc(/C=C2/SC(=S)NC2=O)c(C)n1-c1ccccc1C(F)(F)F', 'EC50 at 72 h', 9);

Below: the item to evaluate.
EC50 at 72 h reported for this molecule Cc1cc(/C=C2\NC(=O)NC2=O)c(C)n1-c1ccccc1C(F)(F)F : 84

---

# protocol details: In vitro cytotoxicity assay in L-6 cells (Alamar Blue)
# run conditions: rat
measure: EC50 at 72 h (µM)
Numbers only, in µM.

Please go through the list and note EC50 at 72 h for each compound.
1. Cc1cc(C=C2C(=O)NC(=S)NC2=O)c(C)n1-c1ccccc1C(F)(F)F [Compound 52]
2. Cc1cc(C=C2C(=O)NC(=O)NC2=O)c(C)n1-c1ccccc1C(F)(F)F [Compound 51]

16
120

---

# protocol details: In vitro cytotoxicity assay in L-6 cells (Alamar Blue)
# run conditions: rat, L-6 cells (rat skeletal myoblasts)
Assignment: determine reported EC50 at 72 h for the given molecules.

Please go through the list and note EC50 at 72 h for each molecule.
1. CC1=CC(/C=C2\S/C(=N\c3ccccc3)N(C)C2=O)=C(C)C1c1ccccc1C(F)(F)F (stereo not shown) [Compound 34]
2. Cc1cc(/C=C2\S/C(=N\c3ccccc3)N(C3CCCCC3)C2=O)c(C)n1-c1ccc(Br)cc1 [Compound 21]

1: > 200 µM; 2: > 170 µM

Please go through the list and note EC50 at 72 h for each molecule.
1. Cc1cc(/C=C2\S/C(=N\c3ccccc3)N(C)C2=O)c(C)n1-c1ccccc1 [Compound 33]
2. Cc1cc(/C=C2\S/C(=N\c3ccccc3)N(C)C2=O)c(C)n1CCN1CCOCC1 [Compound 36]

1. > 230 µM
2. > 210 µM
